Measured TGI values are reported for all entries that follow.
System: MOLT-4 leukemia
Assay: NCI tumour cell line growth inhibition, 48 h

- COMPOUND: "COc1cccc2c(Nc3ccc(C(=O)NCCN4CCNCC4)cc3)cc(-c3ccccc3)nc12"
  MEASURED QUANTITY: "TGI"
  ENDPOINT RESULT: "> 100 µM"
- COMPOUND: "O=C1OC(c2ccccc2)=N/C1=C\\c1ccc(N(CCCl)CCCl)cc1"
  MEASURED QUANTITY: "TGI"
  ENDPOINT RESULT: "> 79.9 µM"
- COMPOUND: "CCCNc1ncnc2c1cnn2C"
  MEASURED QUANTITY: "TGI"
  ENDPOINT RESULT: "> 100 µM"
- COMPOUND: "COC(=O)/C(=C/c1ccc(OC)cc1)c1cc(OC)c(OC)c(OC)c1"
  MEASURED QUANTITY: "TGI"
  ENDPOINT RESULT: "> 97.5 µM"
- COMPOUND: "Nc1nc(N)c(-c2ccccc2)c(C(=O)Nc2nccs2)n1"
  MEASURED QUANTITY: "TGI"
  ENDPOINT RESULT: "> 100 µM"
- COMPOUND: "O=C1CSC(c2cccc(Oc3ccccc3)c2)N1c1cc(Cl)ccc1Cl (stereo unspecified)"
  MEASURED QUANTITY: "TGI"
  ENDPOINT RESULT: "57.8 µM"

# CC1=C2[C@@H](c3ccccc3)C3C=CC2(C=C3C(F)(F)F)N(C(=O)NC2CCCCC2)C1=O (stereo partly specified) with MOLT-4 leukemia: TGI is > 100 µM

* * *

System: UACC-257 melanoma
Test: NCI tumour cell line growth inhibition, 48 h
Measured TGI values are reported for all entries that follow.

Examples from the recorded data:
- COMPOUND: "O=C1Cc2c([nH]c3c(Br)cccc23)-c2ccccc2N1"
  TGI: "> 100 µM"
- COMPOUND: "C/C(=C\\CNc1ncnc2c1ncn2CCC#N)CO"
  TGI: "> 100 µM"
- COMPOUND: "COC(=O)c1ccccc1NCc1cc(O)ccc1O"
  TGI: "31.2 µM"
- COMPOUND: "Cn1c(=O)c(Oc2ccc(F)cc2F)cc2cnc(NC3CCC(O)CC3)nc21 (stereo unspecified)"
  TGI: "> 25 µM"
- COMPOUND: "Cc1c(N)nc(C2CC(=O)N2CC(N)C(N)=O)nc1C(=O)NC(C(=O)NC(C)C(O)C(C)C(=O)NC(C(=O)NCCc1nc(-c2nc(C(=O)NCCNCC(C)O)cs2)cs1)C(C)O)C(OC1OC(CO)C(O)C(O)C1OC1OC(CO)C(O)C(OC(N)=O)C1O)c1cnc[nH]1 (stereo unspecified)"
  TGI: "49.4 µM"

Moving on to the next compound.
// TGI lookup, compound = COc1ccc(S(=O)(=O)NCCCNc2nccc(-c3c(-c4ccc(F)cc4)nc4sccn34)n2)cc1 , result: > 100 µM

* * *

System: SK-OV-3 ovarian
Experiment: NCI tumour cell line growth inhibition, 48 h
MEASURED QUANTITY: TGI

- MOLECULE: "C/C(=C\\CNc1ncnc2c1ncn2CCC#N)CO"
  ENDPOINT RESULT: "> 100 µM"
- MOLECULE: "O=C(CO[N+](=O)[O-])OCC(=O)c1ccccc1"
  ENDPOINT RESULT: "> 100 µM"
- MOLECULE: "Cc1ccc(C)c(C(=O)CC2OC(O)C(Cl)C2Cl)c1 (stereo unspecified)"
  ENDPOINT RESULT: "> 100 µM"
- MOLECULE: "C(/Cc1ccc2c(c1)OCO2)=N\\NC1=NCCCCN1"
  ENDPOINT RESULT: "> 100 µM"
- MOLECULE: "COC(=O)c1ccccc1NCc1cc(O)ccc1O"
  ENDPOINT RESULT: "> 100 µM"
- MOLECULE: "O=C1COc2cc3c(cc2N1)SCC(=O)N3"
  ENDPOINT RESULT: "> 100 µM"
- MOLECULE: "Oc1ccc(CCNc2nc3ccccc3c3[nH]c4ccccc4c23)cc1"
  ENDPOINT RESULT: "27 µM"
- MOLECULE: "ClCc1ccc(Cn2cnc3nc(Cl)nc(Cl)c32)cc1"
  ENDPOINT RESULT: "5.7 µM"

// TGI lookup, molecule = Cc1c(N(Cc2ccccc2)Cc2ccccc2)nc(S(C)(=O)=O)nc1S(C)(=O)=O , result: 27.7 µM

// TGI lookup, molecule = Cc1[nH]n(C(=O)c2ccc(Cl)cc2)c(=O)c1/C=C1\C(O)=CC(=O)c2ccccc21 , result: > 100 µM

// TGI lookup, molecule = COC(=O)/C(=C/c1ccc(OC)cc1)c1cc(OC)c(OC)c(OC)c1 , result: 40.4 µM

* * *

Measured TGI values are reported for all entries that follow.
Tested on: SF-539 CNS
Experiment: NCI tumour cell line growth inhibition, 48 h
Write the answer as a number in µM, unit excluded.

// TGI lookup, molecule = CN(C)C(=O)c1cc2cnc(Nc3ccc(N4CCNCC4)cn3)nc2n1C1CCCC1 , result: 30.8

// TGI lookup, molecule = O=C(c1ccccc1)c1ccc(N2C(=O)C3C4c5ccccc5C(/C=C/C(=O)c5ccccn5)(c5ccccc54)C3C2=O)cc1 (stereo not given) , result: 4.91

* * *

Measured TGI values are reported for all entries that follow.
System: SW-620 colon
Test: NCI tumour cell line growth inhibition, 48 h
Write the answer as a number in µM, unit excluded.

// TGI lookup, molecule = O=C(Nc1nc2ccc([N+](=O)[O-])cc2s1)c1cc([N+](=O)[O-])ccc1Cl , result: 5.59

// TGI lookup, molecule = Cc1c(C(=O)C/C(=N/NC(=O)CC#N)C(N)=O)[n+](=O)c2ccccc2n1[O-] , result: 34.5

// TGI lookup, molecule = CC(C)c1nc(Cl)c(Cl)c(Cl)n1 , result: 15.6

* * *

Measured TGI values are reported for all entries that follow.
Tested on: CCRF-CEM leukemia
Experiment: NCI tumour cell line growth inhibition, 48 h

Examples from the recorded data:
- COMPOUND: "Cc1cc(N(CCCl)CCCl)ccc1/C=N\\NC(=O)c1cccnc1"
  STUDY TARGET: "CCRF-CEM leukemia"
  MEASURED QUANTITY: "TGI"
  ENDPOINT RESULT: "> 100 µM"
- COMPOUND: "FC(F)(Sc1nc2ccccc2[nH]1)c1nc2ccccc2o1"
  STUDY TARGET: "CCRF-CEM leukemia"
  MEASURED QUANTITY: "TGI"
  ENDPOINT RESULT: "> 100 µM"
- COMPOUND: "O=C1Cc2c(-c3ccccc3)cc(-c3ccc(Cl)cc3)nc2-c2ccccc2N1"
  STUDY TARGET: "CCRF-CEM leukemia"
  MEASURED QUANTITY: "TGI"
  ENDPOINT RESULT: "> 53.4 µM"
- COMPOUND: "CCOC(=O)c1sc2nc(SC)nc3c2c1NCN3c1ccccc1Cl"
  STUDY TARGET: "CCRF-CEM leukemia"
  MEASURED QUANTITY: "TGI"
  ENDPOINT RESULT: "> 100 µM"
- COMPOUND: "CS(=O)(=O)Nc1ccc(Nc2c3ccccc3nc3cc(Cl)ccc23)cc1"
  STUDY TARGET: "CCRF-CEM leukemia"
  MEASURED QUANTITY: "TGI"
  ENDPOINT RESULT: "33.7 µM"

// TGI lookup, compound = CC(C)[C@H](NC(=O)OCc1ccccc1)C(=O)N[C@H](/C=C/C(=O)OC(C)(C)C)CO , result: > 100 µM

// TGI lookup, compound = N#Cc1c(N)nc(N2CCOCC2)c(C#N)c1-c1ccc(Cl)cc1Cl , result: 75 µM

// TGI lookup, compound = Brc1ccc2c(c1)-c1ccccc1C1=NCCN12 , result: 4.93 µM

// TGI lookup, compound = O=C(c1ccccc1)n1c2ccc(Br)cc2c2nc3ccccc3nc21 , result: > 100 µM

// TGI lookup, compound = NC1=NN(c2ccccc2)C(=O)C1/C(=N\NC(=O)c1cc2ccccc2cc1O)C(=O)Nc1ccc(Cl)cc1 (stereo unspecified) , result: 24.4 µM

// TGI lookup, compound = COc1cc(COC(=O)NC(Cc2cccs2)C(=O)O)c([N+](=O)[O-])cc1OC (stereo unspecified) , result: > 100 µM

// TGI lookup, compound = Cc1cc2c(SCc3ccccc3Cl)nc(N)nc2nc1C , result: > 100 µM

// TGI lookup, compound = COC(=O)C1=C(C)C(=O)C2(CCCCCC2C(=O)OC)C1 (stereo unspecified) , result: > 100 µM

* * *

Test system: LOX IMVI melanoma
Experiment: NCI tumour cell line growth inhibition, 48 h
MEASURED QUANTITY: TGI

Examples from the recorded data:
- TEST SMILES: "CC(=O)OC/C=C/Cn1nc(Br)c(=O)[nH]c1=O"
  MEASURED QUANTITY: "TGI"
  ENDPOINT RESULT: "> 100 µM"
- TEST SMILES: "O=CC12CCCN1CCC2"
  MEASURED QUANTITY: "TGI"
  ENDPOINT RESULT: "> 100 µM"

// TGI lookup, compound = CCc1c[nH]c2ncnc(N3CC[C@](N)(CNC(=O)c4ccc(F)cc4F)C3)c12 , result: > 100 µM

// TGI lookup, compound = Cc1cc(C2(c3cc(C)c(O)c4ncccc34)OC(=O)c3ccccc32)c2cccnc2c1O , result: > 100 µM

// TGI lookup, compound = N#Cc1c(N/N=C/c2c(Cl)cccc2Cl)nc(N)nc1N1CCCC1 , result: > 100 µM

// TGI lookup, compound = c1csc(-c2[nH]nc3c2CCc2ccccc2-3)c1 , result: 29.4 µM
